# Target under test: human F508del-CFTR (Homo sapiens, UniProt P13569, DEL508-508)
# Sequence (P13569 with tags, fused parts or gaps DEL508-508): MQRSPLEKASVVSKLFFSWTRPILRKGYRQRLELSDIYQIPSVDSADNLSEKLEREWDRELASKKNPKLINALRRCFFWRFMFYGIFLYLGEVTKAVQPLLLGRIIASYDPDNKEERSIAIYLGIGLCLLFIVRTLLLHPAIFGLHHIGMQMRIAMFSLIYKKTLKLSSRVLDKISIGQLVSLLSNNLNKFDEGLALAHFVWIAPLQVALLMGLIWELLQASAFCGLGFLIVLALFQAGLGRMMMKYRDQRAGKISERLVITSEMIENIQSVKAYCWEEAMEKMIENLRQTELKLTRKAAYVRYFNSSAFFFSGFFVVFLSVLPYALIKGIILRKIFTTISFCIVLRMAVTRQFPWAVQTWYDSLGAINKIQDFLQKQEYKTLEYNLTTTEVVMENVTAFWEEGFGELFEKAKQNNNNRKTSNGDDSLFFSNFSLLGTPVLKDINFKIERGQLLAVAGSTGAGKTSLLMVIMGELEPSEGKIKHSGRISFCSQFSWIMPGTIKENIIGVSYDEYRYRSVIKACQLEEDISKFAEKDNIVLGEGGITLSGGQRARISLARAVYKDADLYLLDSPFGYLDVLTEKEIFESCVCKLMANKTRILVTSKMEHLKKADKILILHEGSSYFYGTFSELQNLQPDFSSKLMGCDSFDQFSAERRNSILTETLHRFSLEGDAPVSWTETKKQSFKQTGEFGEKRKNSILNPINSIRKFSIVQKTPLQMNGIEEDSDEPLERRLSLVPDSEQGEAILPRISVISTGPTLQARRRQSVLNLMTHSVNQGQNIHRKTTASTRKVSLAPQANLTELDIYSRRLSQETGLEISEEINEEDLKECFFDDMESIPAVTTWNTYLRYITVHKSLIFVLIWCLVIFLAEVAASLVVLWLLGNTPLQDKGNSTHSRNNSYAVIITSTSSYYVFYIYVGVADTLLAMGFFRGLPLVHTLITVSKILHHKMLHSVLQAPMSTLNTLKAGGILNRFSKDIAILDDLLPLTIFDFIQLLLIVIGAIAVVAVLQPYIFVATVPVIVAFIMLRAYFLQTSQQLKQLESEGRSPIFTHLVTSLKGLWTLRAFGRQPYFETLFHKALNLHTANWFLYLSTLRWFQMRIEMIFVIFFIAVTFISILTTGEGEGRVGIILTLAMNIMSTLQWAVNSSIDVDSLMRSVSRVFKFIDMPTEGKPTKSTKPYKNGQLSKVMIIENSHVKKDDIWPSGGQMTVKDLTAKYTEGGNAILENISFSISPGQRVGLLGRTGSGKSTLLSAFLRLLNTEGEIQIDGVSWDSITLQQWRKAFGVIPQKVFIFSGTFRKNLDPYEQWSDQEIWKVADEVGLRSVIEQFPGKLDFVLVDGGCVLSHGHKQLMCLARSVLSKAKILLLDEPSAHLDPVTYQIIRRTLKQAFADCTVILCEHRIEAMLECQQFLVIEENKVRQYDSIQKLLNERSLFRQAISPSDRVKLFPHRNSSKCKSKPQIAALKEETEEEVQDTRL
# Assay: F508del-CFTR cell surface expression (corrector activity), DiscoveRx ß-galactosidase complementation chemiluminescence assay in recombinant U2OS cell line
# Assay setup: EC50, F508del-CFTR cell surface expression, U2OS cells, 16h compound incubation; geomean of several measurements
Provide the recorded pEC50 for the entries that follow.
One number for each entry, as −log10 of the molar value.

Consider the following illustrative entries.
In: Name the reported pEC50 value associated with the molecule CCOCC[C@@H]1C(=O)N[C@H](Cc2ccccc2)COc2ccc3cnc(C)cc3c2C(=O)N[C@H](C(=O)NCCc2nc(OC)no2)CC(=O)N(C)[C@@H](CC(C)C)C(=O)N1C [Example 914]
Out: 6.43

In: Do the same for CC(C)C[C@H]1C(=O)N(C)[C@H](Cc2nc(-c3ccc(F)cn3)no2)C(=O)N[C@H](Cc2ccccc2)COc2cnc3ccc(F)cc3c2C(=O)N[C@H](C(=O)NCCc2noc(C3CC3)n2)CC(=O)N1C [Example 813] please
Out: 6.96

In: Do the same for COc1cc(CCNC(=O)[C@@H]2CC(=O)N(C)[C@@H](CC(C)C)C(=O)N(C)[C@@H](Cc3nc(-c4ccc(F)cn4)no3)C(=O)N[C@H](Cc3ccccc3)COc3cnc4ccc(F)cc4c3C(=O)N2)on1 [Example 816] please
Out: 6.13

In: Do the same for COc1noc(CCNC(=O)[C@@H]2CC(=O)N(C)[C@@H](CC(C)C)C(=O)N(C)[C@H](Cc3nc(C(F)(F)F)no3)C(=O)N[C@H](Cc3ccccc3)COc3ccnc(OC)c3C(=O)N2)n1 [Example 949] please
Out: 6.95

Attention now turns to another entry.
In: Name the reported pEC50 value associated with the molecule COc1noc(CCNC(=O)[C@@H]2CC(=O)N(C)[C@@H](CC(C)C)C(=O)N(C)[C@H](Cc3nc(C(F)(F)F)no3)C(=O)N[C@H](Cc3ccccc3)COc3ccc4c(cc(F)c[n+]4[O-])c3C(=O)N2)n1 [Example 983]
Out: 6.57

* * *

# Target under test: human F508del-CFTR (Homo sapiens, UniProt P13569, DEL508-508)
# Assay: F508del-CFTR cell surface expression (corrector activity), DiscoveRx ß-galactosidase complementation chemiluminescence assay in recombinant U2OS cell line;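 further: U2OS cells co-expressing ProLink-tagged F508del-CFTR and a membrane-anchored enzyme acceptor, where more surface CFTR restores β-galactosidase activity measured by chemiluminescence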
# Assay setup: U2OS, in relation to Emax of corrector lumacaftor (=100%); arithmetic mean values
Provide the recorded Emax for the entries that follow.

Consider the following illustrative entries.
In: Name the reported Emax value associated with the molecule COc1cccc(CCNC(=O)[C@@H]2CC(=O)N(C)[C@@H](CC(C)C)C(=O)N3CCCC[C@@H]3C(=O)N[C@H](Cc3ccccc3)COc3ccc(OC)cc3C(=O)N2)c1 [Example 587]
Out: 106%

In: Do the same for Cc1cc(CCNC(=O)[C@@H]2CC(=O)N(C)[C@@H](CC(C)C)C(=O)N(C)C3(Cc4ccccc4C3)C(=O)N[C@H](Cc3ccccc3)COc3cnc4ccccc4c3C(=O)N2)on1 [Example 495] please
Out: 207%

In: Do the same for Cc1cc(CCNC(=O)[C@@H]2CC(=O)N(C)[C@@H](CC(C)C)C(=O)N(C[C@H]3COc4ccccc4C3)CC(=O)N[C@H](Cc3ccccc3)COc3cnc4ccccc4c3C(=O)N2)on1 [Example 704] please
Out: 156%

In: Do the same for COc1cccc(CCNC(=O)[C@@H]2CC(=O)N(C)[C@@H](CC(C)C)C(=O)N(C)[C@@H](COCc3ccccc3)C(=O)N[C@H](Cc3ccccc3)COc3ccc4ccccc4c3C(=O)N2)c1 [Example 715] please
Out: 283%

In: Do the same for Cc1cc2ccc3c(c2o1)C(=O)N[C@H](C(=O)NCCc1cc(C2CC2)no1)CC(=O)N(C)[C@@H](CC(C)C)C(=O)N(C)C1(CC1)C(=O)N[C@H](Cc1ccccc1)CO3 [Example 552] please
Out: 358%

In: Do the same for COc1cccc(CCNC(=O)[C@@H]2CC(=O)N(C)[C@@H](CC(C)C)C(=O)N3CCN(C(=O)c4cnccn4)C[C@@H]3C(=O)N[C@H](Cc3ccccc3)COc3ccc4ccccc4c3C(=O)N2)c1 [Example 753] please
Out: 264%

In: Do the same for COc1cccc(CCNC(=O)[C@@H]2CC(=O)N(C)[C@@H](CC(C)C)C(=O)N(C)[C@@H](CO)C(=O)N[C@H](Cc3ccccc3)COc3ccc4ccccc4c3C(=O)N2)c1 (racemic) [Example 718] please
Out: 272%

In: Do the same for CC(C)C[C@H]1C(=O)N2CCN(C3CC3)C[C@H]2C(=O)N[C@H](Cc2ccccc2)COc2cnc3ccccc3c2C(=O)N[C@H](C(=O)NCCc2nc3c(s2)CCC3)CC(=O)N1C [Example 405] please
Out: 171%

Please report Emax for every entry that follows.
1. Cc1cc(CCNC(=O)[C@@H]2CC(=O)N(C)[C@@H](CC(C)C)C(=O)N(C)[C@@H](C)C(=O)N[C@H](Cc3ccccc3)COc3ccc4cc(C)oc4c3C(=O)N2)on1 (mixture of isomers) [Example 576]
2. CC(C)C[C@H]1C(=O)N2CCCC[C@@H]2C(=O)N[C@H](Cc2ccccc2)COc2cnc3ccc(F)cc3c2C(=O)N[C@H](C(=O)NCCc2cc(C3CC3)no2)CC(=O)N1C [Example 640]

Out:
["268%", "339%"]
